TARGET OF ASSAY: PCP recognition sites (PCP receptor)
ASSAY SUMMARY: [3H]TCP radioreceptor assay (binding to PCP recognition sites)
TEST CONDITIONS: rat whole brain membranes, approx. 1 nM [3H]TCP; mean of at least two determinations
EXPERIMENTAL ENDPOINT: Ki (nM)
// note: answer is a bare numeric in nM

Query: Quick check: Ki of COc1cccc2c1C1c3scc[n+]3C2CC1(c1ccoc1)c1ccoc1 (centres unmarked) ?
Reply: 14.1

Query: Quick check: Ki of CCOC1(OCC)C2c3ccccc3C([n+]3ccn(C)c32)C1(C)C (centres unmarked) ?
Reply: 8.2

Query: Quick check: Ki of CCCCn1cc[n+]2c1C1c3ccccc3C2CC1(c1ccoc1)c1ccoc1 (centres unmarked) ?
Reply: 36.3

Query: Quick check: Ki of c1ccc(C2(c3ccccc3)CC3c4ccccc4C2c2scc[n+]23)cc1 (centres unmarked) ?
Reply: 4.2

Query: Quick check: Ki of Cc1c[n+]2c(s1)C1c3ccccc3C2CC1(c1ccoc1)c1ccoc1 (centres unmarked) [16(E)] ?
Reply: 11

* * *

System: NMDA-induced neurotoxicity in cultured cortical neurons
ASSAY SUMMARY: Antagonism of NMDA-induced neurotoxicity in cultured neurons
Format: cell-based, mouse (Swiss-Webster)
TEST CONDITIONS: Mus musculus, Cortical neurone, 500 μM NMDA for 30 minutes; LDH activity after 24 hours
EXPERIMENTAL ENDPOINT: IC50 (nM)
// note: answer is a bare numeric in nM

Query: Quick check: IC50 of c1ccc2c(c1)C1CC(c3ccoc3)(c3ccoc3)C2c2scc[n+]21 (racemic) [4(e)] ?
Reply: 50

Query: Quick check: IC50 of Cn1cc[n+]2c1C1c3ccccc3C2CC1(c1ccoc1)c1ccoc1 (stereo not shown) [13(b)] ?
Reply: 257

Query: Quick check: IC50 of CCOC1(OCC)C2c3c(OC)cccc3C([n+]3ccsc32)C1(C)C (stereo not shown) [6(d)] ?
Reply: 79

Query: Quick check: IC50 of Cc1csc2[n+]1C1CC(c3ccoc3)(c3ccoc3)C2c2ccccc21 (stereo not shown) [15(F)] ?
Reply: 300

Query: Quick check: IC50 of Oc1cccc2c1C1c3scc[n+]3C2CC1(c1ccoc1)c1ccoc1 (stereo not shown) [206(f)] ?
Reply: 20.9

Query: Quick check: IC50 of CCOC1(OCC)C2c3ccccc3C([n+]3ccsc32)C1(C)C (stereo not shown) [Example 1i, hydrate] ?
Reply: 173

Query: Quick check: IC50 of c1ccc2c(c1)C1CC(c3ccoc3)(c3ccoc3)C2c2scc[n+]21 (single isomer, unassigned; (-)) [5(c)] ?
Reply: 32

Query: Quick check: IC50 of CCOC1(OCC)C2c3ccccc3C([n+]3ccn(C)c32)C1(C)C (stereo not shown) [7(F)] ?
Reply: 53

Query: Quick check: IC50 of c1ccc2c(c1)C1CC(c3ccn[nH]3)(c3ccn[nH]3)C2c2scc[n+]21 (stereo not shown) [18(h)] ?
Reply: 480

Query: Quick check: IC50 of Cc1c[n+]2c(s1)C1c3ccccc3C2CC1(c1ccoc1)c1ccoc1 (stereo not shown) [16(E)] ?
Reply: 270
